Molecular target: T1, mouse MMP-2 (Mus musculus, UniProt P33434)
T1 construct: purchased R&D Systems 924-MP-010
T1 sequence (P33434 110-662): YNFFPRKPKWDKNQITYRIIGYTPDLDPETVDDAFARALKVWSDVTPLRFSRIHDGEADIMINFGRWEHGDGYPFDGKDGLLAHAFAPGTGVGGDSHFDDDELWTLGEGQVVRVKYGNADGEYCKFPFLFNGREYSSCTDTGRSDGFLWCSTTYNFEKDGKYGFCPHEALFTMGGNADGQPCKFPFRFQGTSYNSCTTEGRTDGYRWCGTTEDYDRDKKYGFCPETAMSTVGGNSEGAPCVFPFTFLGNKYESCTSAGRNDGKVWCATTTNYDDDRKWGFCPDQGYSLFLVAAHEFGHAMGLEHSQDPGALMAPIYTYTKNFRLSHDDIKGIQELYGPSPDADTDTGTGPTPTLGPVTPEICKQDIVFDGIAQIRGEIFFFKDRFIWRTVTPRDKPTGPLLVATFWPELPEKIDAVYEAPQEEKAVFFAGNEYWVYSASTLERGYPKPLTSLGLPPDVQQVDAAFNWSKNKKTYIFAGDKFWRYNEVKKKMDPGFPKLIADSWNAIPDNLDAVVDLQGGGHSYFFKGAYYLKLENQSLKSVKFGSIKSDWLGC
Test: Enzyme inhibition assay (single point inhibition, IC50/Ki,app), substrate M-2350
Assay type: biochemical
Details: small-scale sFab; Table 10
endpoint-name: pKi
Just the number, please; pKi means minus log10 of the concentration in mol/L.

Noted for M0301-A09: affinity matured variant of M237-D02, sFab (antibody, V domains shown) VH: EVQLLESGGGLVQPGGSLRLSCAASGFTFSYYDMWWVRQAPGKGLEWVSVIYPSGGYTAYADSVKGRFTISRDNSKNTLYLQMNSLRAEDTAVYYCAKDRAYGDYVGWNGFDYWGQGTLVTVSS VL: QDIQMTQSPATLSLSPGERATLSCRASQSISSFLAWYQQKPGQAPRLLIYDASYRATGIPARFSGSGSGTDFTLTISSLEPEDYAVYYCQQRGNWPITFGQGTRLEIK : its pKi reads 7.68
